Catalogue of compounds with associated inhibition at 40 µM
- TARGET: hKV10.1a (Homo sapiens, UniProt O95259)
- Construct: expressed in transfected cells; host or cells: Xenopus laevis oocytes injected with cRNA transcribed from the hKV10.1a-pSGEM plasmid
- Sequence (O95259 1-962 isoform O95259-2): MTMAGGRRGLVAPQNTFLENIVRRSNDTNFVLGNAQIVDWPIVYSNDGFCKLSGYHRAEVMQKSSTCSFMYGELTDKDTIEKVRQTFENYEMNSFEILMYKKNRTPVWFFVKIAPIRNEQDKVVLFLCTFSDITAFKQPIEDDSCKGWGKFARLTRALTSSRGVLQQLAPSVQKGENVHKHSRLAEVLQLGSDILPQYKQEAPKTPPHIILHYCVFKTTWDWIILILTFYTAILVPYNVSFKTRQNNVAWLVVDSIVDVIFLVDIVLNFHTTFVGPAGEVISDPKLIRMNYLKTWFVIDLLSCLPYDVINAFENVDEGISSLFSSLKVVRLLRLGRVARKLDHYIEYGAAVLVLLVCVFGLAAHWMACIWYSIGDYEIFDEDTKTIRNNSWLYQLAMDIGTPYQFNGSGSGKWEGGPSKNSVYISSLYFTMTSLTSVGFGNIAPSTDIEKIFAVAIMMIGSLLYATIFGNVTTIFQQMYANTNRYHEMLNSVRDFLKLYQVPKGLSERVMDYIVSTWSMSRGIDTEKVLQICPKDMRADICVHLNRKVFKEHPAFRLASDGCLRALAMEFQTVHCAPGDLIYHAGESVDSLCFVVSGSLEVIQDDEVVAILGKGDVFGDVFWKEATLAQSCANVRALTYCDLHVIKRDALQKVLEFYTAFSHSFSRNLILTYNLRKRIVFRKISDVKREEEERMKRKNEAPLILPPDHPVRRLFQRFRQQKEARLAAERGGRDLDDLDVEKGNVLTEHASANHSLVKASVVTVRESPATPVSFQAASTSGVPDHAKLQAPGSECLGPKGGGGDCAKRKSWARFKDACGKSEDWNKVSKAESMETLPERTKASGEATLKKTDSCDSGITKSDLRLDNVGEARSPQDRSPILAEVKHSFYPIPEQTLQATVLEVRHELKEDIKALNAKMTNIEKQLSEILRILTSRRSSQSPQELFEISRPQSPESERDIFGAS
- EXPERIMENT: Two-electrode voltage-clamp recordings of KV10.1 currents in Xenopus laevis oocytes
- Format: cell-based
- STUDY CONDITIONS: 40 μM, extracellular perfusion; average ± SEM; read-out: KV10.1 current inhibition
Could you give me the number in %? Just the number is fine.

Here's what some known entries look like.
>>> reported_measurement("CN(C)CCCOc1c(Br)cc(CCNC(=O)c2ccc(Br)cc2)cc1Br")
22
>>> reported_measurement("CNCCCOc1c(Br)cc(CCNC(=O)c2ccc(OC)cc2)cc1Br")
9
>>> reported_measurement("CNCCCOc1c(Br)cc(CCNC(=O)c2cc(Cl)c(OC)c(Cl)c2)cc1Br")
39
>>> reported_measurement("CN(C)CCCOc1c(Br)cc(CCNC(=O)c2cncc(Br)c2)cc1Br")
50
>>> reported_measurement("CC(C)CCCOc1c(Br)cc(CCNC(=O)c2cc(Cl)cc(Cl)c2)cc1Br")
0

Data request: // query inhibition at 40 µM value for entry COc1ccc(C(=O)NCCc2cc(Br)c(OCCCN(C)C)c(Br)c2)cc1Br
Data returned: 80

Data request: What do you have for CNCCCOc1c(Br)cc(CCNC(=O)c2ccc(OC)c(Cl)c2)cc1Br ?
Data returned: 58

Data request: What do you have for COc1ccc(C(=O)NCCc2cc(Br)c(OCCCN(C)C)c(Br)c2)cc1Cl ?
Data returned: 87

Data request: What do you have for CN(C)CCCOc1c(Br)cc(CCNC(=O)c2cc(F)cc(F)c2)cc1Br ?
Data returned: 35

---

- EXPERIMENT: Cytotoxicity assay (CellTox Green Dye, IncuCyte)
- Assay type: cell-based
- STUDY CONDITIONS: human, LNCaP cells, indicative, from AUC vs concentration (2-100 μM), read-out: Cytotoxic effect (EC50)
READOUT TYPE: pEC50
Quick note: pEC50 means taking -log10 of the concentration in moles per liter.

Data request: // query pEC50 value for entry COc1ccc(C(=O)NCCc2cc(Br)c(OCCCN(C)C)c(Br)c2)cc1Cl [Compound 5]
Data returned: 4.39

---

Catalogue of molecules with associated melting point

Here's what some known entries look like.
>>> reported_measurement("COc1ccc(C(=O)NCCc2cc(Br)c(OCCCN(C)C)c(Br)c2)cc1Cl")
"79 to 81 °C"
>>> reported_measurement("CNCCCOc1c(Br)cc(CCNC(=O)c2ccc(OC)cc2)cc1Br")
"89 to 97 °C"
>>> reported_measurement("COc1ccc(C(=O)NCCc2cc(Br)c(OCCCN(C)C)c(Br)c2)cc1F")
"83 to 89 °C"

Data request: // query melting point value for entry COc1c(Cl)cc(C(=O)NCCc2cc(Br)c(CCCN(C)C)c(Br)c2)cc1Cl
Data returned: 91 to 95 °C

Data request: What do you have for COc1c(Br)cc(C(=O)NCCc2cc(Br)c(CCCN(C)C)c(Br)c2)cc1Br ?
Data returned: 83 to 85 °C

Data request: What do you have for CN(C)CCCc1c(Br)cc(CCNC(=O)c2cc(Cl)cc(Cl)c2)cc1Br ?
Data returned: 83 to 84.5 °C

Data request: What do you have for CNCCCOc1c(Br)cc(CCNC(=O)c2cc(F)c(OC)c(F)c2)cc1Br ?
Data returned: 87 to 92 °C

Data request: What do you have for COc1ccc(C(=O)NCCc2cc(Br)c(CCCN(C)C)c(Br)c2)cc1 ?
Data returned: 106 to 109 °C

Data request: What do you have for CCOc1c(Cl)cc(C(=O)NCCc2cc(Br)c(CCCN(C)C)c(Br)c2)cc1Cl ?
Data returned: 73 to 75 °C
